Data origin, for the record: patent US20030068675

Target: ZFP SBS#942 (synthetic, UniProt P08047)
Sequence (P08047 other isoform, or with tags, fused parts or gaps): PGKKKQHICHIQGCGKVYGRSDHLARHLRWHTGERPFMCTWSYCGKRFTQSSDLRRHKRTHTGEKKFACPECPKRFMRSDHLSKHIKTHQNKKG
Assay: EMSA
Conditions: tags: MBP fusion
quantityName: pKd
Numbers only, as −log10 of the molar value.

The reported pKd of the binder GGGGCTGGG (dsDNA) DNA 1: GGGGCTGGG DNA 2: CCCAGCCCC was 9.89
